- testedOn: human FPR2 (Homo sapiens)
- Sequence (P25090 1-351): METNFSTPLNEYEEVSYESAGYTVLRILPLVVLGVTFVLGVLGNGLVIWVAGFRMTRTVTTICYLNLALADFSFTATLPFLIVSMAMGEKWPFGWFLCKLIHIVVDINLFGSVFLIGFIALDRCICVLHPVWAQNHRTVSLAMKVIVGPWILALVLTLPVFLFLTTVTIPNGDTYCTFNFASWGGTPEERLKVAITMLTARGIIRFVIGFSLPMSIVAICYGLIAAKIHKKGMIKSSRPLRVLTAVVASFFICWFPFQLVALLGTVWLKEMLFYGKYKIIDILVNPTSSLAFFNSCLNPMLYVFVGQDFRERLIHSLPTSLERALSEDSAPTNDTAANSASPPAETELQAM
- assayText: FPR2 cyclic adenosine monophosphate (cAMP) assay
- Format: cell-based
- conditionDetails: CHO cells overexpressing human FPR2; forskolin 5 μM; inhibition of cAMP production; HTRF; read-out: hFPR2 cAMP2 EC50
testReadout: EC50
Mention the unit after the number when you answer.

COc1cc(F)c(-c2c(NC(=O)c3ccc(OC(F)F)cc3)c(=O)n(-c3nc(C4CCN(S(C)(=O)=O)CC4)ccc3C(F)(F)F)n2C)c(F)c1    2 nM

Incoming: Look up EC50 for this molecule: `COc1cc(F)c(-c2c(NC(=O)c3ccc(OC(F)(F)F)cc3)c(=O)n(-c3cccc(C(F)F)n3)n2C)c(F)c1`
Outgoing: 8 nM

Incoming: Then this molecule: `COc1cc(N2CC[C@@H](O)C2)nc(-n2c(=O)c(NC(=O)c3ccc(OC(F)F)cc3)c(-c3c(F)cc(OC)cc3F)n2C)c1`
Outgoing: 8 nM

Incoming: Then this molecule: `COc1cc(F)c(-c2c(NC(=O)c3ccc(OC(F)(F)F)cc3)c(=O)n(-c3cc(Cl)ccn3)n2C)c(F)c1`
Outgoing: 5 nM

Incoming: Then this molecule: `COc1cc(OCCCO)nc(-n2c(=O)c(NC(=O)c3ccc(OC(F)F)cc3)c(-c3c(F)cc(OC)cc3F)n2C)c1`
Outgoing: 4 nM

Incoming: Then this molecule: `COc1cc(F)c(-c2c(NC(=O)c3ccc(OC(F)F)cc3)c(=O)n(-c3cncc(Cl)c3)n2C)c(F)c1`
Outgoing: 20 nM

---

- testedOn: human FPR2 (Homo sapiens, UniProt P25090)
- assayText: FPR2 cyclic adenosine monophosphate (cAMP) assay
- conditionDetails: CHO cells overexpressing human FPR2; forskolin 5 μM; inhibition of cAMP production; HTRF; read-out: hFPR2 cAMP2 EC50
Classification by EC50 | ranges: class A (below 4 nM), class B (4 nM to below 9 nM), class C (9 nM or more)

COc1cc(F)c(-c2c(NC(=O)c3ccc(OC(F)F)cc3)c(=O)n(-c3cc(OCCO)cc(C(F)(F)F)n3)n2C)c(F)c1    class C
COc1cc(F)c(-c2c(NC(=O)c3ccc(OC(F)F)cc3)c(=O)n(-c3nc(Nc4ncn[nH]4)ccc3C(F)(F)F)n2C)c(F)c1    class A
COc1cc(F)c(-c2c(NC(=O)c3ccc(OC(F)F)cc3)c(=O)n(-c3cc(C)cc(C4CCN(C)CC4)n3)n2C)c(F)c1    class A

Now consider a different molecule.
Incoming: Dear colleague, I would appreciate it if you could identify the bin for `COc1cc(OCC(F)(F)F)nc(-n2c(=O)c(NC(=O)c3ccc(OC(F)F)cc3)c(-c3c(F)cc(OC)cc3F)n2C)c1` and reply at your convenience.
Outgoing: class B

---

- testedOn: UniProt P25090
- assayText: FPR2 cyclic adenosine monophosphate (cAMP) assay
- conditionDetails: CHO cells overexpressing human FPR2; forskolin 5 μM; inhibition of cAMP production; HTRF; read-out: hFPR2 cAMP2 EC50
testReadout: EC50 (nM)
Reply numerically in nM, unit not repeated.

Incoming: Look up EC50 for this molecule: COc1cc(F)c(-c2c(NC(=O)c3ccc(OC(F)F)cc3)c(=O)n(-c3ncccc3C#N)n2C)c(F)c1 [Example 55]
Outgoing: 8

Incoming: Then this molecule: COc1cc(F)c(-c2c(NC(=O)c3ccc(OC(F)F)cc3)c(=O)n(-c3cccc(N4CCCCC4=O)n3)n2C)c(F)c1 [Example 150]
Outgoing: 13

Incoming: Then this molecule: COc1cc(F)c(-c2c(NC(=O)c3ccc(OC(F)F)cc3)c(=O)n(-c3cc(OC)c(C)cn3)n2C)c(F)c1 [Example 77]
Outgoing: 17

---

- testedOn: human FPR1 (Homo sapiens)
- Sequence (P21462 whole entry): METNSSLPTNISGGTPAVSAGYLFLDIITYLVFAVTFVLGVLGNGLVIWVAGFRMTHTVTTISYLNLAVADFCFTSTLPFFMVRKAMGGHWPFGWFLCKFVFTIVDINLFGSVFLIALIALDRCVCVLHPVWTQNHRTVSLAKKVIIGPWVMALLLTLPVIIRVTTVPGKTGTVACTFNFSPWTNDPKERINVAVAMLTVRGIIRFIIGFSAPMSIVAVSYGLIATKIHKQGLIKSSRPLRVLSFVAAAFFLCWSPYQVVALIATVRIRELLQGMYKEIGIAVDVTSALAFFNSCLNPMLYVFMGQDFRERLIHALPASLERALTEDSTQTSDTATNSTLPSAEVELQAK
- assayText: FPR1 cyclic adenosine monophosphate (cAMP) assay
- conditionDetails: CHO cells overexpressing human FPR1; forskolin 10 μM; inhibition of cAMP production; HTRF; read-out: hFPR1 cAMP2 EC50
testReadout: pEC50
pEC50 field: float, defined as -log10 of concentration (mol/L).

Check out these entries, answers already filled in.
CCOc1cccc(-n2c(=O)c(NC(=O)c3ccc(OC(F)F)cc3)c(-c3c(F)cc(OC)cc3F)n2C)c1 [Example 118]    8.52
COc1cc(N2CC[C@H](O)C2)nc(-n2c(=O)c(NC(=O)c3ccc(OC(F)F)cc3)c(-c3c(F)cc(OC)cc3F)n2C)c1 [Example 97]    5.47
COc1cc(F)c(-c2c(NC(=O)c3ccc(OC(F)F)cc3)c(=O)n(-c3cccc(C4CC4)c3)n2C)c(F)c1 [Example 111]    8.70
COc1cc(F)c(-c2c(NC(=O)c3ccc(OC(F)F)cc3)c(=O)n(-c3nc(N4CCN(C)CC4)ccc3F)n2C)c(F)c1 [Example 219]    5.49
COc1cc(F)c(-c2c(NC(=O)c3ccc(OC(F)F)cc3)c(=O)n(-c3ccc4ccccc4n3)n2C)c(F)c1 [Example 60]    6.68

Incoming: Look up pEC50 for this molecule: CC(C)Oc1cc(OCC(C)(C)O)nc(-n2c(=O)c(NC(=O)c3ccc(OC(F)(F)F)cc3)c(-c3c(F)cc(Cl)cc3F)n2C)c1 [Example 408]
Outgoing: 5.96

Incoming: Then this molecule: COc1cc(F)c(-c2c(NC(=O)c3ccc(OC(F)F)cc3)c(=O)n(-c3ccnc(Cl)c3)n2C)c(F)c1 [Example 116]
Outgoing: 5.70

Incoming: Then this molecule: COc1cc(F)c(-c2c(NC(=O)c3ccc(OC(F)F)cc3)c(=O)n(-c3cccc(Cl)c3F)n2C)c(F)c1 [Example 187]
Outgoing: 5.66

Incoming: Then this molecule: COc1cc(F)c(-c2c(NC(=O)c3ccc(OC(F)F)cc3)c(=O)n(-c3nc(N4CCCC4C(F)(F)F)ccc3C(F)(F)F)n2C)c(F)c1 (centres unmarked) [Example 302]
Outgoing: 5.66

Incoming: Then this molecule: COc1cc(F)c(-c2c(NC(=O)c3ccc(OC(F)F)cc3)c(=O)n(-c3nc(N(C)C)ccc3C(F)(F)F)n2C)c(F)c1 [Example 136]
Outgoing: 5.17

Incoming: Then this molecule: COc1cc(F)c(-c2c(NC(=O)c3ccc(OC(F)F)cc3)c(=O)n(-c3cccc(N4CCN(CC5CC5)CC4)n3)n2C)c(F)c1 [Example 207]
Outgoing: 6.85

---

- testedOn: human FPR2 (Homo sapiens)
- assayText: FPR2 cyclic adenosine monophosphate (cAMP) assay
- conditionDetails: CHO cells overexpressing human FPR2; forskolin 5 μM; inhibition of cAMP production; HTRF; read-out: hFPR2 cAMP2 EC50
testReadout: pEC50
pEC50 field: float, defined as -log10 of concentration (mol/L).

Incoming: Look up pEC50 for this compound: `COc1cc(F)c(-c2c(NC(=O)c3ccc(OC(F)F)cc3)c(=O)n(CCO)n2C)c(F)c1`
Outgoing: 6.64

Incoming: Then this compound: `COc1cc(F)c(-c2c(NC(=O)c3ccc(OC(F)(F)F)cc3)c(=O)n(-c3ccccc3C#N)n2C)c(F)c1`
Outgoing: 8.15

---

- testedOn: human FPR2 (Homo sapiens, UniProt P25090)
- assayText: FPR2 cyclic adenosine monophosphate (cAMP) assay
- conditionDetails: CHO cells overexpressing human FPR2; forskolin 5 μM; inhibition of cAMP production; HTRF; read-out: hFPR2 cAMP2 EC50
pEC50: −log10 of the molar value.
Returns condition met if the recorded pEC50 is greater than or equal to 8, and condition not met otherwise.

COc1cc(OCC(O)C(F)(F)F)nc(-n2c(=O)c(NC(=O)c3ccc(OC(F)F)cc3)c(-c3c(F)cc(OC)cc3F)n2C)c1 (stereo not shown) [Example 380]    condition met
COc1cc(F)c(-c2c(NC(=O)c3ccc(OC(F)F)cc3)c(=O)n(-c3nc(N4CCCC4=O)ccc3C(F)(F)F)n2C)c(F)c1    condition met

Incoming: Please tell me: is the compound `COc1cc(F)c(-c2c(NC(=O)c3ccc(Cl)cc3)c(=O)n(-c3ccccc3F)n2C)c(F)c1` at or over 8 in terms of pEC50?
Outgoing: condition not met
